- System: 695427-040-R-J1-PDC complex spheroids, viability percent T/C;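 further: spheroids exposed to compounds for seven days before readout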
- Test: Anticancer human tumor 695427-040-R-J1-PDC patient-derived colon adenocarcinoma cell line growth inhibition [GQUAD]
- Assay conditions: second compound 0.316 µM; first compound 10 µM; active compounds read low
- Text: DNA G-quadruplex Stabilizer Agents in Combinations in Complex Spheroids A high-throughput screen of multi-cell type tumor spheroids was designed to identify active combinations of DNA G-quadruplex stabilizer agents and targeted small molecules. […] Compounds. […] If the clinical Cmax for an agent had not been determined, the highest concentration tested was 10 microM. […]
Listing of recorded viability, T/C by entry.
Field format: number, assumed %, no unit text.

Below are worked cases with known answers.
CC1COCCN1c1cc(C2(S(C)(=N)=O)CC2)nc(-c2ccnc3[nH]ccc23)n1 (stereo unspecified) + Cc1[nH]c2ccc(F)cc2c1-c1nc2c3cccnc3c3ncccc3c2[nH]1	61.5
O=C(c1cc(Cc2n[nH]c(=O)c3ccccc23)ccc1F)N1CCN(C(=O)C2CC2)CC1 + Cc1[nH]c2ccc(F)cc2c1-c1nc2c3cccnc3c3ncccc3c2[nH]1	102
CC1COCCN1c1cc(C2(O)CC3CCC(C2)O3)c2cnn(-c3ccn[nH]3)c2n1 (stereo unspecified) + CN(C)c1ccc(Nc2c3ccc(NC(=O)CCN4CCCC4)cc3nc3cc(NC(=O)CCN4CCCC4)ccc23)cc1	39

### Prompt Specify the recorded viability, T/C for C=CCn1c(=O)c2cnc(Nc3ccc(N4CCN(C)CC4)cc3)nc2n1-c1cccc(C(C)(C)O)n1 + Cc1cnc(CNC(=O)c2c(=O)c3ccc(N4CCCN(C)CC4)nc3n3c2sc2ccccc23)cn1 , system: 695427-040-R-J1-PDC complex spheroids, viability percent T/C.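 Further: spheroids exposed to compounds for seven days before readout.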
### Response 40.6

### Prompt Specify the recorded viability, T/C for CCCS(=O)(=O)Nc1ccc(F)c(C(=O)c2c[nH]c3ncc(-c4ccc(Cl)cc4)cc23)c1F + Cc1[nH]c2ccc(F)cc2c1-c1nc2c3cccnc3c3ncccc3c2[nH]1 , system: 695427-040-R-J1-PDC complex spheroids, viability percent T/C.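 Further: spheroids exposed to compounds for seven days before readout.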
### Response 54.7

### Prompt Specify the recorded viability, T/C for CC(C)n1c(=O)n(C)c2cnc3cc(F)c(-c4ccc(OCCCN5CCCCC5)nc4)cc3c21 + Cc1[nH]c2ccc(F)cc2c1-c1nc2c3cccnc3c3ncccc3c2[nH]1 , system: 695427-040-R-J1-PDC complex spheroids, viability percent T/C.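 Further: spheroids exposed to compounds for seven days before readout.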
### Response 61.3
